Reported values of IC50 for individual entries
assay_overview: Inhibition of HIV1 reverse transcriptase
Parameters: species or system Human immunodeficiency virus 1
The response must be a number in µM with no trailing unit.

{"structure_smiles": "O=[N+]([O-])/C=C/c1ccccc1O", "IC50 [µM]": 540}

Fill in the blank: the reported IC50 of O=[N+]([O-])/C=C/c1ccco1 is ____.
465

Fill in the blank: the reported IC50 of O=[N+]([O-])/C=C/c1ccccc1Br is ____.
202

Fill in the blank: the reported IC50 of CC(=O)N(C)/C=C/c1ccccc1Cl is ____.
434

Fill in the blank: the reported IC50 of CC(=O)N(C)/C=C/c1cccc(Br)c1 is ____.
838

Fill in the blank: the reported IC50 of COc1ccc(/C=C/[N+](=O)[O-])cc1 is ____.
561

Fill in the blank: the reported IC50 of CC(=O)N(C)/C=C/c1ccccc1C is ____.
487

Fill in the blank: the reported IC50 of Cc1ccccc1/C=C/[N+](=O)[O-] is ____.
261
